# Tested on: human APOE RNA
# procedure-summary: Dose-dependent inhibition of human APOE RNA in differentiated SH-SY5Y cells, free uptake, 5 days (Example 5)
# Type: cell-based
# experimental-parameters: 205 nM, 5 days (Table 14)
Strand notation (5' to 3'): a small letter for the sugar, then the base; units joined by * are phosphorothioate-linked, units joined directly phosphodiester-linked; [ ] holds rarer units or linkages, { } end groups; capitals alone tell only the bases. [ms] = mesyl phosphoramidate linkage; e = 2'-O-(2-methoxyethyl) (MOE); k = constrained ethyl (cEt); [5mC] = 5-methylcytosine; d = 2'-deoxy (DNA)
Kindly state APOE RNA (% UTC) for each of the entries shown.
Numbers only, in % UTC.

Example entries begin here.
Aes^mCeoTeoTesGesGksTdsGdzAdzAdzTds^mCdsTdsTdsTdsAdzTksTksAesAe (eA*e[5mC]eTeT*eG*kG*dT*dG[ms]dA[ms]dA[ms]dT*d[5mC]*dT*dT*dT*dA[ms]kT*kT*eA*eA) [Compound No. 1757576] ... 32
1746809 (k[5mC]*dT[ms]kT*dG[ms]kG*dT[ms]dG[ms]dA[ms]dA[ms]dT*d[5mC]*dT*dT*dT*dA[ms]dT*dT[ms]kA*kA*kA; antisense) [Compound 1746809] ... 77
1778131: modified oligonucleotide complementary to human APOE RNA (eA*e[5mC]eTeTeGkG*dT*dG[ms]dA[ms]dA*dT*d[5mC]*dT*dT*dT*dA[ms]kTkT*eA*eA; antisense) [compound 1778131] ... 64

Give recorded APOE RNA (% UTC) with human APOE RNA for the following substance: ^mCksTksTksGdzGdzTdzGdzAdzAdzTds^mCdsTdsTdsTdsAdsTdsTksAksAdzAk (antisense k[5mC]*kT*kT*dG[ms]dG[ms]dT[ms]dG[ms]dA[ms]dA[ms]dT*d[5mC]*dT*dT*dT*dA*dT*kT*kA*dA[ms]kA) [Compound No. 1785602]
42

###

# Tested on: human APOE RNA
# procedure-summary: Dose-dependent reduction of human APOE RNA in HepG2 cells, electroporation, 20,000 cells per well, average of GAPDH- and PPIA-normalized results (Example 4, Table 12)
# Format: cell-based
# experimental-parameters: 20,000 nM, HepG2, 20,000 cells per well
Strand notation (5' to 3'): a small letter for the sugar, then the base; units joined by * are phosphorothioate-linked, units joined directly phosphodiester-linked; [ ] holds rarer units or linkages, { } end groups; capitals alone tell only the bases. [ms] = mesyl phosphoramidate linkage; e = 2'-O-(2-methoxyethyl) (MOE); k = constrained ethyl (cEt); [5mC] = 5-methylcytosine; d = 2'-deoxy (DNA)
Recorded APOE RNA (% UTC) split into classes LOW: < 6 % UTC; MID: ≥ 6 % UTC and < 10 % UTC; HIGH: ≥ 10 % UTC

Check out these entries, answers already filled in.
1757575 (eA*e[5mC]eTeT*kG*kG*dT*dG[ms]dA[ms]dA[ms]dT*d[5mC]*dT*dT*dT*dA[ms]kT*eT*eA*eA; antisense) [Compound 1757575] ... LOW
1778128: modified oligonucleotide complementary to human APOE RNA (eA*e[5mC]eTeTkGkG*dT*dG[ms]dA[ms]dA*dT*d[5mC]*dT*dT*dT*dA[ms]kTeT*eA*eA; antisense) [compound 1778128] ... HIGH
1778130: modified oligonucleotide complementary to human APOE RNA (eA*e[5mC]eTeTeG*kG*dT*dG[ms]dA[ms]dA*dT*d[5mC]*dT*dT*dT*dA[ms]kTkT*eA*eA; antisense) [compound 1778130] ... MID

Class (by measured APOE RNA (% UTC)) for 1785599: modified oligonucleotide complementary to human APOE RNA (k[5mC]*kT*kT*dG[ms]dG[ms]dT[ms]dG[ms]dA[ms]dA[ms]dT[ms]d[5mC]*dT*dT*dT*dA*dT*kT*kA*dA[ms]kA; antisense) [compound 1785599]
HIGH

Field entry: 1785598: modified oligonucleotide complementary to human APOE RNA (k[5mC]*kT*kT*dG[ms]dG[ms]dT[ms]dG[ms]dA[ms]dA[ms]dT*d[5mC]*dT*dT*dT*dA*dT[ms]kT*kA*dA[ms]kA; antisense) [compound 1785598]
HIGH

Field entry: ^mCksTksTksGdzGdzTdzGdzAdzAdzTds^mCdsTdsTdsTdsAdsTdsTksAksAdzAk (antisense k[5mC]*kT*kT*dG[ms]dG[ms]dT[ms]dG[ms]dA[ms]dA[ms]dT*d[5mC]*dT*dT*dT*dA*dT*kT*kA*dA[ms]kA) [Compound No. 1785602]
LOW

Field entry: 1778111: modified oligonucleotide complementary to human APOE RNA (eA*e[5mC]eTeTeG*kG*dT*dG[ms]dA[ms]dA*dT*d[5mC]*dT*dT*dT*dA[ms]eTeT*eA*eA; antisense) [compound 1778111]
MID
